Tyrosine-protein phosphatase non-receptor type 2 (Homo sapiens, UniProt P17706) Ki, compiled from various sources.
Sequence (P17706 whole entry): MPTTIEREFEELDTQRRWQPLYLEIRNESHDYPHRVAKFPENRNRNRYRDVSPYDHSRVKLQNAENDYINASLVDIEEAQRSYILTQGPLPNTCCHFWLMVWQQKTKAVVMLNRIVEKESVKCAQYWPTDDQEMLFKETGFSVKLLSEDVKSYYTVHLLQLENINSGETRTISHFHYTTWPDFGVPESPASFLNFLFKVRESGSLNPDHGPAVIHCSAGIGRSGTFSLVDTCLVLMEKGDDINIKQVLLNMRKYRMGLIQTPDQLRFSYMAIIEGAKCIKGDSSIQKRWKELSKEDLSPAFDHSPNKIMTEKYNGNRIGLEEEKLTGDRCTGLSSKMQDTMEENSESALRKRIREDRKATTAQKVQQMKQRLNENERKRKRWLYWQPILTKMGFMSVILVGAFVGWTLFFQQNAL

Examples with answers:
compound	Ki
O=C(O)COc1c(C(=O)O)sc2c1sc1cc(NC3CCN(S(=O)(=O)Cc4ccccc4)CC3)ccc12	0.38 µM
Cc1cccc(N(C(=O)C(=O)O)c2ccccc2C(=O)O)c1C	164 µM
O=C(O)C(=O)N(c1ccccc1C(=O)O)c1cccc2ccccc12	44 µM
COC(=O)c1c(O)cccc1OCCCCNC(=O)[C@H](Cc1ccc(OCC(=O)O)cc1)NC(=O)OC(C)(C)C	> 200 µM
CC(=O)N[C@@H](Cc1ccc(N(C(=O)C(=O)O)c2ccccc2C(=O)O)c2ccccc12)C(=O)NCCCCCOc1cc2ccccc2cc1C(=O)O	0.049 µM

// switching to the query compound
### Prompt What value of Ki has been reported for the following compound? COC(=O)c1c(O)cccc1OCCCCNC(=O)[C@H](Cc1ccc(OCC(=O)O)c(O)c1)NC(C)=O (racemic)
### Response 182 µM
